# melting point values compiled below
# unit: °C | format: bare number

>>> endpoint_result("CS(=O)(=O)NC(=O)[C@H](Cc1ccc(OCc2ccccc2)cc1)NC(=O)c1cn2cc(-c3ccc(Cl)cc3)ccc2n1")
232
>>> endpoint_result("O=C(N[C@@H](Cc1ccc(OCc2ccoc2)cc1)C(=O)O)c1cn2ccc(-c3ccc(Cl)cc3)cc2n1")
243

Next molecule, please.
Bench note: what melting point did COc1ccc(-c2ccc3c(c2)CC(NC(=O)Cc2ccc(F)cc2)(C(=O)O)C3)cc1 (centres unmarked) show?
227

---

List of melting point values.
Respond with the bare value in °C.

Given the entry O=C(N[C@@H](Cc1ccc(OCc2ccccc2)cc1)C(=O)O)c1cn2ccc(-c3ccc(Cl)cc3)cc2n1 [Example E8] , report its measured melting point.
255

---

# maps each entry to its melting point

>>> endpoint_result("COc1cccc(COc2ccc(C[C@H](NC(=O)c3cn4ccc(-c5ccc(Cl)cc5)cc4n3)C(=O)O)cc2)c1")
"239 to 240 °C"
>>> endpoint_result("Cc1cc2nc(C(=O)NC(Cc3ccc(OCc4ccccc4)cc3)C(=O)O)cn2c(C)c1-c1ccc(Cl)cc1 (centres unmarked)")
"250 to 251 °C"
>>> endpoint_result("O=C(NC(Cc1ccc(OCc2ccc(F)cc2)cc1)C(=O)O)c1cn2ccc(C#Cc3ccccc3)cc2n1 (centres unmarked)")
"243 °C (dec.)"
>>> endpoint_result("O=C(O)CN(Cc1ccc(OCc2ccsc2)cc1)C(=O)c1cn2ccc(-c3ccc(Cl)cc3)cc2n1")
"187 °C"
>>> endpoint_result("Nc1ccccc1COc1ccc(CC(=O)NC2(C(=O)O)Cc3ccc(-c4ccc(Cl)cc4)cc3C2)cc1 (centres unmarked)")
"149 to 150 °C"
>>> endpoint_result("Cn1c(C(=O)N[C@@H](Cc2ccc(OCc3ccccc3)cc2)C(=O)O)cc2ccc(-c3ccc(Cl)cc3)cc21")
"205 to 206 °C"
>>> endpoint_result("Cc1cc(-c2ccc(Cl)cc2)cn2cc(C(=O)N[C@@H](Cc3ccc(OCc4ccccc4)cc3)C(=O)O)nc12")
"249 to 250 °C"
>>> endpoint_result("Nc1c(C(=O)N[C@@H](Cc2ccc(OCc3ccccc3)cc2)C(=O)O)oc2cc(-c3ccc(Cl)cc3)ccc12")
"250 °C (dec.)"
>>> endpoint_result("O=C(Cc1ccc(OCc2cccs2)cc1)NC1(C(=O)O)Cc2ccc(-c3ccc(Cl)cc3)cc2C1 (centres unmarked)")
"201 °C"
>>> endpoint_result("O=C(N[C@@H](Cc1ccc(OCc2ccccc2)cc1)C(=O)O)C1=Cc2ccc(-c3ccc(Cl)cc3)cc2SC1")
"225 to 227 °C"

Requested read-out: melting point. Entry: O=C(NC(Cc1ccc(OCc2ccccc2)cc1)C(=O)O)c1cn2cc(CCc3ccccc3)ccc2n1 (centres unmarked)
239 °C (dec.)

Would you mind telling me what melting point value was observed for COc1cc(F)c(-c2ccc3nc(C(=O)N[C@@H](Cc4ccc(OCc5ccccc5)cc4)C(=O)O)cn3c2)c(F)c1 ?
219 °C

---

Reported melting point is given for each of the following compounds.

These recorded examples may help you get a feel for the data.
>>> endpoint_result("O=C(Cc1ccc(OCc2ccccc2C(=O)O)cc1)NC1(C(=O)O)Cc2ccc(-c3ccc(Cl)cc3)cc2C1 (stereo not shown)")
"209 to 211 °C"
>>> endpoint_result("O=C(NC(Cc1ccc(OCc2ccccc2)cc1)c1nnn[nH]1)c1cn2nc(-c3ccc(Cl)cc3)ccc2n1 (stereo not shown)")
"186 °C"
>>> endpoint_result("O=C(N[C@@H](Cc1ccc(OCc2ccccc2)cc1)C(=O)O)c1cn2nc(-c3ccc(Cl)cc3)ccc2n1")
"242 to 243 °C"

Now examine the next entry.
Given the entry Cc1c(-c2ccc(Cl)cc2)nc2ccc(C(=O)N[C@@H](Cc3ccc(OCc4ccccc4)cc3)C(=O)O)cn12 , report its measured melting point.
244 to 245 °C

---

Measured Quantity: melting point

The examples below pair each entry with its known result.
>>> endpoint_result("O=C(CSc1ccc2ccccc2c1)NC1(C(=O)O)Cc2ccc(-c3ccc(Cl)cc3)cc2C1 (stereo not shown)")
"223 to 225 °C"
>>> endpoint_result("CCc1ccc(COc2ccc(C[C@H](NC(=O)c3cn4ccc(-c5ccc(Cl)cc5)cc4n3)C(=O)O)cc2)cc1")
"245 °C"
>>> endpoint_result("O=C(N[C@@H](Cc1ccc(OCc2ccccc2)cc1)C(=O)O)c1cn2cc(-c3ccc(Cl)cc3Cl)ccc2n1")
"237 to 239 °C"
>>> endpoint_result("O=C(N[C@@H](Cc1ccc(OCc2ccccc2)cc1)C(=O)O)c1cn2nc(/C=C/c3ccc(Cl)cc3)ccc2n1")
"256 to 257 °C"

# lookup: melting point of O=C(Cc1ccc(OCc2ccc(F)cc2)cc1)NC1(C(=O)O)Cc2ccc(-c3cccc(Cl)c3)cc2C1 (stereo not shown)
173 to 174 °C

What value of measured melting point is listed for Cc1cccc(COc2ccc(C[C@H](NC(=O)c3cc4ccc(-c5ccc(Cl)cc5)cc4o3)C(=O)O)cc2)c1 ?
157 to 158 °C

Which measured melting point value corresponds to O=C(NC(Cc1ccc(OCc2ccc(C(F)(F)F)cc2)cc1)C(=O)O)c1cc2ccc(-c3ccc(Cl)cc3)cc2o1 (stereo not shown) ?
203 °C

---

Measured Quantity: melting point

>>> endpoint_result("O=C(N[C@@H](Cc1ccc(OCc2ccccc2)cc1)C(=O)O)c1cc2ccc(-c3ccc(Cl)cc3)cc2s1")
"237 to 239 °C"

Now consider the entry below.
Request the reported melting point associated with Cc1noc(C)c1COc1ccc(CC(=O)NC2(C(=O)O)Cc3ccc(-c4ccc(Cl)cc4)cc3C2)cc1 (stereo not shown)
200 to 201 °C

---

Here the recorded melting point is given for each entry.

Answered cases to consult:
>>> endpoint_result("CN(C(=O)c1cn2ccc(-c3ccc(Cl)cc3)cc2n1)[C@@H](Cc1ccc(OCc2ccccc2)cc1)C(=O)O")
"222 °C"
>>> endpoint_result("O=C(CCc1ccc(OCc2ccccc2)cc1)Nc1c(C(=O)O)oc2cc(-c3ccc(Cl)cc3)ccc12")
"209 to 210 °C"
>>> endpoint_result("O=C(N[C@@H](Cc1ccc(OCc2ccccc2)cc1)C(=O)O)c1nc2ccc(-c3ccc(Cl)cc3)cc2[nH]1")
"260 to 261 °C"

// below: melting point requested for another compound
Endpoint output: melting point of Cc1c(C(=O)N[C@@H](Cc2ccc(OCc3ccccc3)cc2)C(=O)O)oc2cc(-c3ccc(Cl)cc3)ccc12 . Value?
143 to 144 °C

---

Measured Quantity: melting point (°C)
Answer in °C, number only, no unit symbol.

>>> endpoint_result("CN(C(=O)c1cn2cc(-c3ccc(Cl)cc3)ccc2n1)[C@@H](Cc1ccc(OCc2ccccc2)cc1)C(=O)O")
216
>>> endpoint_result("O=C(N[C@@H](Cc1ccc(OCc2ccc(C(F)(F)F)cc2)cc1)C(=O)O)c1cn2ccc(-c3ccc(Cl)cc3)cc2n1")
263

Report melting point for O=C(CC1CCN(C(=O)Cc2ccc(F)cc2)CC1)NC1(C(=O)O)Cc2ccc(-c3ccc(Cl)cc3)cc2C1 (stereo not shown) please.
196

---

Known melting point of a selection of compounds

For orientation, consider the following solved cases.
>>> endpoint_result("O=C(/C=C/c1cccc(-c2ccc(Cl)cc2)n1)NC(Cc1ccc(OCc2ccccc2)cc1)C(=O)O (stereo not shown)")
"226 to 228 °C"
>>> endpoint_result("CS(=O)(=O)c1ccc(CC(=O)NC2(C(=O)O)Cc3ccc(-c4ccc(Cl)cc4)cc3C2)cc1 (stereo not shown)")
"216 °C"
>>> endpoint_result("O=C(/C=C/c1ccc(-c2ccc(Cl)cc2)cc1)N[C@@H](Cc1ccc(OCc2ccccc2)cc1)C(=O)O [Example D2]")
"253 to 254 °C"

Query (compound): Cc1c(C(=O)N[C@@H](Cc2ccc(OCc3ccccc3)cc2)C(=O)O)oc2ccc(-c3ccc(Cl)cc3)cc12 ; field requested: melting point
209 to 210 °C

GET /values?readout=melting point&item= O=C(Cc1ccc(OCc2cccc(F)c2)cc1)NC1(C(=O)O)Cc2ccc(-c3ccc(Cl)cc3)cc2C1 (stereo not shown)
209 °C

Given O=C(N[C@@H](Cc1ccc(OCc2ccccc2)cc1)C(=O)O)c1cn2cc(/C=C/c3ccccc3)ccc2n1 , state its recorded melting point.
262 to 263 °C

Which melting point value is on record for O=C(N[C@@H](Cc1ccc(OCc2ccccc2)cc1)C(=O)O)c1cc2cc(-c3ccc(Cl)cc3)ccc2[nH]c1=O ?
298 to 299 °C

---

Measured Quantity: melting point

As a guide, the following entries are already answered.
>>> endpoint_result("CC(C)(C)OC(=O)c1ccccc1COc1ccc(CC(=O)NC2(C(=O)O)Cc3ccc(-c4ccc(Cl)cc4)cc3C2)cc1 (stereo not shown)")
"170 to 171 °C"
>>> endpoint_result("O=C(CCCSc1nc2ccccc2s1)NC1(C(=O)O)Cc2ccc(-c3ccc(Cl)cc3)cc2C1 (stereo not shown)")
"210 to 212 °C"
>>> endpoint_result("O=C(N[C@@H](Cc1ccc(OCc2ccccc2)cc1)C(=O)O)c1cn2cc(-c3ccc(Cl)cc3)ccc2n1 [Example E1]")
"270 to 271 °C"

Which melting point reading was recorded for the molecule O=C(Cc1cccc(OCc2ccccc2)c1)NC1(C(=O)O)Cc2ccc(-c3ccc(Cl)cc3)cc2C1 (stereo not shown) ?
207 °C

Look up melting point for this molecule: O=C(/C=C/c1ccc(-c2ccc(Cl)cc2)o1)N[C@@H](Cc1ccc(OCc2ccccc2)cc1)C(=O)O
224 to 225 °C

Need melting point, item O=C(N[C@@H](Cc1ccc(OCc2ccc(Cl)cc2)cc1)C(=O)O)c1cc2cc(-c3ccc(Cl)cc3)ccc2s1
196 to 197 °C

Requested field: melting point. Item: O=C(/C=C/c1cccc(-c2ccc(Cl)cc2)c1)N[C@@H](Cc1ccc(OCc2ccccc2)cc1)C(=O)O [Example D1]
194 to 195 °C

Values from patent US20100130737A1
